test system: RAW264.7 murine macrophage cells; assay: cells; type: cell-based; conditions: Mus musculus; RAW264.7 macrophages; 0 to 100 µM; read-out: IC50 (cell viability, MTS assay)
The following compounds are shown together with reported IC50 values.

Worked set:
# COMPOUND, ENDPOINT, EXPERIMENTAL_VALUE
data = [
    ("CC(C)CCOc1ccc(NC(=S)Nc2ccc(OCCC(C)C)cc2)cc1", "IC50", "18.8 µM"),
    ("CC(C)CCOc1ccc(NC(=S)NC2C3CC4CC(C3)CC2C4)cc1 (centres unmarked)", "IC50", "95.3 µM"),
    ("CC(=O)NC[C@H]1CN(c2ccc(N3CCOCC3)c(F)c2)C(=O)O1", "IC50", "16.2 µM"),
    ("CC(C)=CCC/C(C)=C/CNCCNC1C2CC3CC(C2)CC1C3 (centres unmarked)", "IC50", "> 100 µM"),
]

# input for lookup
For `CC(C)CCOc1ccc(NC(=S)NC23CC4CC(CC(C4)C2)C3)cc1` , what is its reported IC50?
> 100 µM

* * *

test system: P. aeruginosa DSM 19880; assay: Non-mycobacterial REMA assay; format: cell-based; conditions: Pseudomonas aeruginosa, DSM19880, read-out: Minimum inhibitory concentration 95%
The following molecules are shown together with reported MIC values.

Worked set:
# MOLECULE, MIC
records = [
    ("CC(C)CCOc1ccc(NC(=S)NC2C3CC4CC(C3)CC2C4)cc1 (stereo not drawn)", "> 32 µg/mL"),
    ("CCc1cc(C(N)=S)ccn1 [ETH, ethionamide]", "> 32 µg/mL"),
    ("CC(=O)NC[C@H]1CN(c2ccc(N3CCOCC3)c(F)c2)C(=O)O1", "> 32 µg/mL"),
    ("NNC(=O)c1ccncc1", "> 32 µg/mL"),
    ("CC(C)=CCC/C(C)=C/CNCCNC1C2CC3CC(C2)CC1C3 (stereo not drawn)", "> 32 µg/mL"),
    ("CC[C@@H](CO)NCCN[C@@H](CC)CO", "> 32 µg/mL"),
    ("CC(C)CCOc1ccc(NC(=S)NC23CC4CC(CC(C4)C2)C3)cc1", "> 32 µg/mL"),
    ("CC(C)CCOc1ccc(NC(=S)Nc2ccc(OCCC(C)C)cc2)cc1", "> 32 µg/mL"),
]

For `CO[C@H]1/C=C/O[C@@]2(C)Oc3c(C)c(O)c4c(O)c(c(/C=N/N5CCN(C)CC5)c(O)c4c3C2=O)NC(=O)/C(C)=C\C=C\[C@H](C)[C@H](O)[C@@H](C)[C@@H](O)[C@@H](C)[C@H](OC(C)=O)[C@@H]1C` , what is its reported MIC?
> 12.8 µg/mL

* * *

The following compounds are shown together with reported viability at 100 µM values.
test system: AC10 hybrid adult ventricular cardiomyocytes; experiment: MTS cytotoxicity assay, cardiomyocytes; format: cell-based; details: Homo sapiens, AC10 cardiac, 96 h, read-out: MTS percentage survival @ 100 µM
A number alone suffices; assume %.

Worked set:
# COMPOUND, EXPERIMENTAL_VALUE
measured = [
    ("CO[C@H]1/C=C/O[C@@]2(C)Oc3c(C)c(O)c4c(O)c(c(/C=N/N5CCN(C)CC5)c(O)c4c3C2=O)NC(=O)/C(C)=C\\C=C\\[C@H](C)[C@H](O)[C@@H](C)[C@@H](O)[C@@H](C)[C@H](OC(C)=O)[C@@H]1C", 40.7),
    ("CC(C)=CCC/C(C)=C/CNCCNC1C2CC3CC(C2)CC1C3 (stereo not shown)", 40.2),
    ("CCc1cc(C(N)=S)ccn1 [ETH, ethionamide]", 90.5),
]

For `CC(=O)NC[C@H]1CN(c2ccc(N3CCOCC3)c(F)c2)C(=O)O1` , what is its reported viability at 100 µM?
103
